Reported Herbicidal rating CYPIR values for a set of compounds
Test system: CYPIR (Rice Flatsedge)
Assay: Postemergence weed control under flooded paddy conditions
Format: in vivo, Cyperus iria
Conditions: rate 0.0625 kg/ha, postemergence weeds, 3-4 weeks after treatment
metric-name: Herbicidal rating CYPIR

INSERT INTO measurements (compound, readout_value) VALUES
  ('CCOC(=O)CN1C(=O)CSC1=Nc1cc(N2C(=O)C3=C(CCCC3)C2=O)c(F)cc1Cl', 0.0),
  ('Cn1c(C(F)(F)F)cc(=O)n(-c2cc(N=C3SCC(=O)N3CCC(=O)O)c(Cl)cc2F)c1=O', 0.0),
  ('CCOC(=O)CN1C(=O)C(C)SC1=Nc1cc(-n2c(=O)cc(C(F)(F)F)n(C)c2=O)c(F)cc1Cl (stereo not shown)', 0.0),
  ('Cn1c(C(F)(F)F)cc(=O)n(-c2cc(N=C3SCC(=O)N3CC(=O)NS(C)(=O)=O)c(Cl)cc2F)c1=O', 3.0);

----------
System: ECHCG (Barnyardgrass)
Test: Postemergence herbicidal evaluation
Assay type: in vivo, Echinochloa crus-galli
Conditions: postemergence, rate 0.0313 kg/ha
We begin with a simple list: items and their reported ECHCG herbicidal rating.
metric-name: ECHCG herbicidal rating

INSERT INTO measurements (compound, readout_value) VALUES
  ('COC(=O)CN1C(=O)CSC1=Nc1cc(-n2c(=O)cc(C(F)(F)F)n(C)c2=O)c(F)cc1Cl', 0.0),
  ('CC1SC(=Nc2cc(-n3c(=O)cc(C(F)(F)F)n(C)c3=O)c(F)cc2Cl)N(C)C1=O (stereo not shown)', 0.0),
  ('CN1C(=O)CSC1=Nc1cc(N2C(=O)C3=C(CCCC3)C2=O)c(F)cc1Cl', 0.0),
  ('CCOC(=O)CN1C(=O)C(F)SC1=Nc1cc(-n2c(=O)cc(C(F)(F)F)n(C)c2=O)c(F)cc1Cl (stereo not shown)', 0.0);

----------
Form field: Postemergence herbicidal rating GLXMAW (one value per entry).
Tested on: GLXMAW (Soybean, Williams)
Assay: Postemergence herbicidal evaluation
Format: in vivo, Glycine max, (L.) Merr. cv Williams
Conditions: Rate 0.0315 kg/ha
metric-name: Postemergence herbicidal rating GLXMAW

INSERT INTO measurements (compound, metric_name, readout_value) VALUES
  ('CCOC(=O)CN1C(=O)C(CC(=O)OC(C)C)SC1=Nc1cc(-n2c(=O)cc(C(F)(F)F)n(C)c2=O)c(F)cc1Cl (centres unmarked)', 'Postemergence herbicidal rating GLXMAW', 6.5),
  ('COC(=O)CCN1C(=O)CSC1=Nc1cc(-n2c(=O)cc(C(F)(F)F)n(C)c2=O)c(F)cc1Cl', 'Postemergence herbicidal rating GLXMAW', 8.0),
  ('Cn1c(C(F)(F)F)cc(=O)n(-c2cc(N=C3SCC(=O)N3CCC(=O)O)c(Cl)cc2F)c1=O', 'Postemergence herbicidal rating GLXMAW', 6.5),
  ('CCOP(=O)(CN1C(=O)CSC1=Nc1cc(-n2c(=O)cc(C(F)(F)F)n(C)c2=O)c(F)cc1Cl)OCC', 'Postemergence herbicidal rating GLXMAW', 7.5),
  ('CCOC(=O)CN1C(=O)C(CC(=O)OCc2ccccc2)OC1=Nc1cc(-n2c(=O)cc(C(F)(F)F)n(C)c2=O)c(F)cc1Cl (centres unmarked)', 'Postemergence herbicidal rating GLXMAW', 9.0);
